These measurements were taken from patent US6972319B1.

# target-or-test-system: T1, PACAP-R3 (human, UniProt P41587 24-438)
# T1 sequence (looked up): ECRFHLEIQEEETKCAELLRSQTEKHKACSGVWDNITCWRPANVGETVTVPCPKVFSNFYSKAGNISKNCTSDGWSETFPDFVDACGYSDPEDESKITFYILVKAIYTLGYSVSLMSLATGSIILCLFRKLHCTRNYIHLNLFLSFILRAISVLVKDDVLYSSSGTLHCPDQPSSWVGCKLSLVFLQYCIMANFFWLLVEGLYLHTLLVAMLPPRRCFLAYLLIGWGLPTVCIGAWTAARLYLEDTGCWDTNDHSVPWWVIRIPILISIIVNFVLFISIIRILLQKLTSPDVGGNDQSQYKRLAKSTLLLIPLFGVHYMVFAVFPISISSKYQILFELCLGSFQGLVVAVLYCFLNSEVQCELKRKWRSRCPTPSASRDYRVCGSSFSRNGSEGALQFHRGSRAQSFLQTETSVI
# protocol-text: cell-based or functional assay
Non-standard residues stand in square brackets, D forms with d. No end group written: not given here. Nle = CCCC[C@H](N)C(=O)O
Quick reference: R3 EC50 of the listed items.
observable: R3 EC50 (nM)

- binder: "Ac-HSDAVFTENYTKLRKQ[Nle]AAKKYLNDLKKGGT-NH2 [R3P0]"
  observable: "R3 EC50"
  result-number: 0.4
- binder: "HSDAVFTDNYTRLRKQVAVKKYLQSILKKR [R3P88]"
  observable: "R3 EC50"
  result-number: 0.08
- binder: "HSDGIFTDSYSRYRKQMAVKKYLAAVKQGGT-NH2 [R3P16]"
  observable: "R3 EC50"
  result-number: 10
- binder: "HSDAVFTDNYTRLRKQMAVKKYLNSIKNKRY [R3P59]"
  observable: "R3 EC50"
  result-number: 0.15
- binder: "HSDAVFTDNYTRLRKQMAFKKYLNSIKNKR [R3P100]"
  observable: "R3 EC50"
  result-number: 0.3
- binder: "HSDAVFTDNYTRLRKQMAAKKYLNSILN [R3P47]"
  observable: "R3 EC50"
  result-number: 0.12
- binder: "HSDAVFTDNYTRLRKQMAAKKYLNSIKNQR [R3P146]"
  observable: "R3 EC50"
  result-number: 0.3
- binder: "HSDAVFTDNYTRLRKQVAAKKYLNSIKNKRY [R3P79]"
  observable: "R3 EC50"
  result-number: 0.5
- binder: "HSDAVFTDNYTRLRKQLAAKKYLNDILKGGT [R3P23]"
  observable: "R3 EC50"
  result-number: 0.43
- binder: "HSDAVFTDNYTRLRKQMAAKKYLNSIKNPR [R3P145]"
  observable: "R3 EC50"
  result-number: 0.5
- binder: "HSDAVFTDNYTRLRKQMAAKKYLNTIKNKRY [R3P70]"
  observable: "R3 EC50"
  result-number: 0.4
- binder: "HSDAVFTDQYTRLRKQLAAHKYLNTIKNKRY [R3P75]"
  observable: "R3 EC50"
  result-number: 0.3
- binder: "HSDAVFTDNYTRLRKQMAVKKYLNSIKNKR [R3P113]"
  observable: "R3 EC50"
  result-number: 0.3
